Every entry's value here was drawn from patent US20190248902A1.

- Experimental system: T1, Cyno ASGR-1 (cynomolgus monkey, UniProt P07306 1-291 (human entry))
- T1 construct: Expressed on HEK 293 cells or as membrane prep on beads; cDNA from XP_005582755; also called cynomologus monkey ASGR-1
- T1 chain: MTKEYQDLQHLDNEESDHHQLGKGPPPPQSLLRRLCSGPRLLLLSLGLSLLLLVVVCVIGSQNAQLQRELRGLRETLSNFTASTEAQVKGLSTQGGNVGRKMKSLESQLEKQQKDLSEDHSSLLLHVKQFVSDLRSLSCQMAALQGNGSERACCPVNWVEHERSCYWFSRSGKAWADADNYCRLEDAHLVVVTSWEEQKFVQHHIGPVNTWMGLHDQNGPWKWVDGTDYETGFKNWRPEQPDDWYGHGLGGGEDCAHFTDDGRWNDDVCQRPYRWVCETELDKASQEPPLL
- Assay text: FACS on transfected HEK 293 cells or membrane preps on beads; Y = signal at least 2x irrelevant IgG

Binder: 7E11 (antibody, V domains shown, Tested as hybridoma supernatant at normalized concentration) VH: QVQLVESGGGVVQPGRSLRLSCAASGFTFSSFGMHWVRQAPGKGLEWVAIIWHDGSNKYYADSVKGRFTISRDNSNNTLYLQMSSLRAEDTAVYYCARDLSMGGMDVWGQGTTVTVSS VL: DIQMTQSPSSLSASVGDRVTIACRASQNIISYLNWYQQKPGKAPKFLIYTASSLQSGVPSRFSGSGSGTDFTLTISSLQPEDFAIYYCQQTYSTPLTFGGGTKVEIK
binding result: binds
//
Binder: 4H6 (antibody, V domains shown, Tested as hybridoma supernatant at normalized concentration) VH: QVQLVQSGAEVKKPGASVKVSCKASGYTFTDYYLHWVRQAPGQGLEWMGWIHPNSGGTNYAQKFQGRVTMTRDTSISTAYMGLSSLRSDDTAVYYCARDGTSSFDYWGQGTLVTVSS VL: DIQMTQSPSSVSASVGDRVTITCRASQGISRWLAWYQQKPGKAPKLLIYGASSLQSGVPSRFSGSGSGTDFTLTISSLQPEDFAIYYCQQANSFPFTFGPGTKVDIK
binding result: binds
//
Binder: 197G3 (antibody, V domains shown, Tested as hybridoma supernatant at normalized concentration) VH: QVQLVESGGGVVQPGRSLRLSCVASGFTFSSHGMHWVRQAPGKGLEWVAVIWYDGSNKNYADSVKGRFTISRDNSKNTLYLQMNSLRAEDTAVYYCARDPSVGYDGMDVWGQGTTVTVSS VL: DIQMTQSPSSLSASVGDRVTITCRASQGIGNHLAWFQQKPGKAPKSLIYAASSLQSGVPSKFSGSRSGTDFSLTISSLQPEDFATYYCQQYSNYPVTFGPGTKVDIK
binding result: binds
